Listed here: compounds with reported HepSE_hepatitis for Hepatotoxicity.

Ask: Assign HepSE_hepatitis to the following record: CCN(CC)CCNC(=O)c1c(C)[nH]c(/C=C2\C(=O)Nc3ccc(F)cc32)c1C
Reply: 0

Ask: Assign HepSE_hepatitis to the following record: COc1ccc(OC)c(C(O)CNC(=O)CN)c1 (configuration not stated)
Reply: 0

Ask: Assign HepSE_hepatitis to the following record: CCOC(=O)C1=C[C@@H](OC(CC)CC)[C@H](NC(C)=O)[C@@H](N)C1
Reply: 1

Ask: Assign HepSE_hepatitis to the following record: CO[C@@]1(NC(=O)Cc2cccs2)C(=O)N2C(C(=O)O)=C(COC(N)=O)CS[C@@H]21
Reply: 0

Ask: Assign HepSE_hepatitis to the following record: CCOC(=O)C1(c2ccccc2)CCN(C)CC1
Reply: 0

Ask: Assign HepSE_hepatitis to the following record: C=C[C@H]1C[N@@]2CC[C@H]1C[C@@H]2[C@@H](O)c1ccnc2ccc(OC)cc12
Reply: 1

Ask: Assign HepSE_hepatitis to the following record: NS(=O)(=O)c1cc2c(cc1Cl)NCNS2(=O)=O [HYDROCHLOROTHIAZIDE]
Reply: 0

Ask: Assign HepSE_hepatitis to the following record: [Mg]
Reply: 0

Ask: Assign HepSE_hepatitis to the following record: CC(N)Cc1ccccc1 (configuration not stated)
Reply: 0

Ask: Assign HepSE_hepatitis to the following record: C[C@]12CCC(=O)C=C1CC[C@@H]1[C@@H]2C(=O)C[C@@]2(C)[C@H]1CC[C@]2(O)C(=O)CO
Reply: 0

Ask: Assign HepSE_hepatitis to the following record: NC(=O)N1c2ccccc2C=Cc2ccccc21 [CARBAMAZEPINE]
Reply: 1

Ask: Assign HepSE_hepatitis to the following record: CC(CN(C)C)CN1c2ccccc2CCc2ccccc21 (configuration not stated)
Reply: 0

Ask: Assign HepSE_hepatitis to the following record: OCCN1CCN(CCCN2c3ccccc3Sc3ccc(C(F)(F)F)cc32)CC1
Reply: 1

Ask: Assign HepSE_hepatitis to the following record: Clc1ccc(CO/N=C(\Cn2ccnc2)c2ccc(Cl)cc2Cl)c(Cl)c1
Reply: 0

Ask: Assign HepSE_hepatitis to the following record: CC(=O)O.CCNC(=O)[C@@H]1CCCN1C(=O)[C@H](CCCNC(=N)N)NC(=O)[C@H](CC(C)C)NC(=O)[C@@H](CC(C)C)NC(=O)[C@H](Cc1ccc(O)cc1)NC(=O)[C@H](CO)NC(=O)[C@H](Cc1c[nH]c2ccccc12)NC(=O)[C@H](Cc1c[nH]cn1)NC(=O)[C@@H]1CCC(=O)N1 [LEUPROLIDE ACETATE]
Reply: 0

Ask: Assign HepSE_hepatitis to the following record: COc1ccccc1OCC(O)COC(N)=O (configuration not stated)
Reply: 0

Ask: Assign HepSE_hepatitis to the following record: O=c1[nH]c(=O)n([C@H]2C[C@H](O)[C@@H](CO)O2)cc1C(F)(F)F
Reply: 0
